// data source = patent US12383598B2

Assay: Cytotoxicity to L929 cells (XTT)
Format: cell-based
Conditions: mouse, L929 cells, GEKG dilution 1/64
Peptide text beside a SMILES is read from it.
Measured quantity: cytotoxicity at 24 h (%)

Molecule: NCCCC[C@H](NC(=O)[C@H](CCC(=O)O)NC(=O)CN)C(=O)NCC(=O)O [GEKG] (H-GEKG-OH)
Output unit: %
Recorded measurement: -2.32

###

Assay: Cytotoxicity to L929 cells (XTT)
Assay type: cell-based
Conditions: mouse, L929 cells, GEKG dilution 1/1024
Peptide text beside a SMILES is read from it.

Compound: NCCCC[C@H](NC(=O)[C@H](CCC(=O)O)NC(=O)CN)C(=O)NCC(=O)O [GEKG] (H-GEKG-OH)
cytotoxicity at 24 h [%]: 0.11

###

Assay: Cytotoxicity to L929 cells (XTT)
Type: cell-based
Conditions: mouse, L929 cells, GEKG dilution 1/4096
Peptide text beside a SMILES is read from it.
Measured quantity: cytotoxicity at 24 h (%)

Compound: NCCCC[C@H](NC(=O)[C@H](CCC(=O)O)NC(=O)CN)C(=O)NCC(=O)O [GEKG] (H-GEKG-OH)
Recorded measurement: -4.72
